target: human CB1 receptor (Homo sapiens, UniProt P21554); construct: expressed in transfected cells; host or cells: SK-N-MC cells, stably transfected with pcDNA3 CB-1 (human); semi-purified membrane pellet; assay: Binding assay for CB1 agonists or inverse agonists ([3H]-CP-55,940 displacement, SK-N-MC membranes); conditions: test concentration 0.2 μM (footnote 2); read-out: CB1 receptor binding percent inhibition
Sequence (P21554 whole entry): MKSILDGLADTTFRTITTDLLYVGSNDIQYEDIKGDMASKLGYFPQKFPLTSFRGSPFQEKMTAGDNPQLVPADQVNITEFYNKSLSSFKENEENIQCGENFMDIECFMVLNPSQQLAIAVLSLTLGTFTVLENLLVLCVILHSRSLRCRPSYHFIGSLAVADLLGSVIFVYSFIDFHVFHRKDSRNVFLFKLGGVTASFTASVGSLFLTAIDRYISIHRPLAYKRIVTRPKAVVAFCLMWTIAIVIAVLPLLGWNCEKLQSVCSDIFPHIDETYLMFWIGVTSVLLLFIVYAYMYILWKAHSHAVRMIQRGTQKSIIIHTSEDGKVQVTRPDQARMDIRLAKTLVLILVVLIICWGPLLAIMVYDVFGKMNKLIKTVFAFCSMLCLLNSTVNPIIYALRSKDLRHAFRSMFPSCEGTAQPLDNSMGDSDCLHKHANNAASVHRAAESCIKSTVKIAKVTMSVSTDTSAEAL
For each entry below, report its inhibition at 0.2 µM value.
Numbers only, in %.

Below, each entry is followed by its recorded inhibition at 0.2 µM result.
[
  {
    "Compound": "O=C(N[C@H](CO)c1ccccc1)c1nn(-c2ccc(F)cc2F)c2c1CCC2Cc1cccc(F)c1 (stereo partly shown)",
    "Assay Metric": "inhibition at 0.2 µM",
    "Observed": 0
  },
  {
    "Compound": "O=C(N[C@@H](CO)Cc1ccccc1)c1nn(-c2ccc(F)cc2F)c2c1CCC2Cc1cccc(F)c1 (stereo partly shown)",
    "Assay Metric": "inhibition at 0.2 µM",
    "Observed": 23
  },
  {
    "Compound": "O=C(N[C@@H](CCl)c1ccccc1)c1nn(-c2ccc(F)cc2F)c2c1CCC2Cc1cccc(F)c1 (stereo partly shown)",
    "Assay Metric": "inhibition at 0.2 µM",
    "Observed": 24
  }
]

-- ask Return reported inhibition at 0.2 µM; argument: O=C(N[C@H](CCl)Cc1ccccc1)c1nn(-c2ccc(F)cc2F)c2c1CCC2Cc1cccc(F)c1 (stereo partly shown)
-- reply 14
